src = patent US20260274895A1

PROCEDURE SUMMARY: Pharmacokinetics of D10.1 after PO, SQ and IV dosing in mice
RUN CONDITIONS: female, Balb/C, mouse, plasma, po, 12.2 mg/kg
OBSERVABLE: level at time molar at 0.25 h (nM)
Form entry: value (nM) — number only.

Req: Looking for the measured level at time molar at 0.25 h of CC[C@H](C)[C@@H]1NC(=O)[C@@H](CC(C)C)NC(=O)[C@H](CC(C)C)N(C)C(=O)[C@H](Cc2ccccc2)NC(=O)CN(C)C(=O)[C@@H]2CCCN2C(=O)[C@H](C(C)C)NC(=O)[C@H](Cc2ccccc2)N(C)C(=O)[C@H]2CCCN2C(=O)[C@H](CC(C)C)NC1=O , can you help?
Resp: 2580

###

RUN CONDITIONS: PAMPA, PAMPA_Papp_Avg (apparent permeability)
Where a SMILES comes first, the peptide text is derived from it. [ ]: non-standard residue; d: D form. NMeF = CN[C@@H](Cc1ccccc1)C(=O)O; NMeL = CN[C@@H](CC(C)C)C(=O)O; dNMeL = CN[C@H](CC(C)C)C(=O)O; NMeA = CN[C@@H](C)C(=O)O; dNMeA = CN[C@H](C)C(=O)O
Answer each item with its documented Papp.
Form entry: value (×10⁻⁶ cm/s) — number only.

Req: Looking for the measured Papp of CC(C)C[C@H]1C(=O)N2CCC[C@@H]2C(=O)N[C@@H](Cc2ccccc2)C(=O)N2CCC[C@H]2C(=O)N[C@H](C(C)C)C(=O)N[C@H](Cc2ccccc2)C(=O)N1C (single isomer, unassigned) [Design D6.9.p1, vf*LpFP] , can you help?
Resp: 5.29

Req: Looking for the measured Papp of CC(C)C[C@@H]1NC(=O)[C@@H](C)NC(=O)[C@H]2CCCN2C(=O)[C@@H]2CCCN2C(=O)[C@@H](C(C)C)NC(=O)[C@@H](CC(C)C)N(C)C(=O)[C@H]2CCCN2C(=O)[C@H]2CCCN2C(=O)[C@@H](C)N(C)C(=O)[C@H](CC(C)C)N(C)C(=O)[C@@H](Cc2ccccc2)NC1=O [Design D11.16, Lf*L*app*lvPpa] (cyclo(L[dF][NMeL][dNMeA][dP][dP][dNMeL][dV]P[dP][dA])) , can you help?
Resp: 0.993

Req: Looking for the measured Papp of CC(C)C[C@@H]1C(=O)N(C)[C@@H](Cc2ccccc2)C(=O)N[C@@H](C(C)C)C(=O)N2CCC[C@H]2C(=O)NCC(=O)N2CCC[C@H]2C(=O)N(C)[C@H](CC(C)C)C(=O)N[C@@H](C(C)C)C(=O)N[C@H](CC(C)C)C(=O)N1C [SEQ ID NO 69, *lvl*l*FVPGP] (cyclo(GP[dNMeL]V[dL][dNMeL][NMeF]VP)) , can you help?
Resp: 0.946

Req: Looking for the measured Papp of CC[C@@H](C)[C@H]1NC(=O)[C@H](CC(C)C)N(C)C(=O)[C@H]2CCCN2C(=O)[C@H](CC(C)C)NC(=O)[C@H](Cc2ccccc2)N(C)C(=O)[C@H](CC(C)C)N(C)C(=O)[C@@H](C(C)C)NC(=O)[C@H](C)NC(=O)[C@H]2CCCN2C(=O)[C@@H]2CCCN2C1=O [Design D10.17, *L*FLp*LiPpAv] (cyclo(A[dV][NMeL][NMeF]L[dP][NMeL][dI]P[dP])) , can you help?
Resp: 2.69

Req: Looking for the measured Papp of CC(C)C[C@@H]1C(=O)N[C@H](CC(C)C)C(=O)N2CCC[C@@H]2C(=O)N2CCC[C@@H]2C(=O)N(C)[C@@H](CC(C)C)C(=O)N[C@H](CC(C)C)C(=O)N2CCC[C@@H]2C(=O)N2CCC[C@H]2C(=O)N1C [Design D8.32, pp*LlpP*ll] (cyclo([dNMeL][dL][dP][dP][NMeL][dL][dP]P)) , can you help?
Resp: 5.23

Req: Looking for the measured Papp of CC(C)C[C@@H]1NC(=O)[C@@H]2CCCN2C(=O)[C@@H](Cc2ccccc2)NC(=O)[C@H](C)N(C)C(=O)[C@H](CC(C)C)NC(=O)[C@H](CC(C)C)N(C)C(=O)[C@@H](C)NC(=O)[C@@H](CC(C)C)NC(=O)[C@@H]2CCCN2C(=O)[C@@H](Cc2ccccc2)NC1=O [SEQ ID NO 108, LfPla*LL*AfP] (cyclo(L[NMeA][dF]PL[dF]P[dL][dA][NMeL])) , can you help?
Resp: 3.92
